subject.of.test: human alpha 7-wt nAChR (Homo sapiens)
Construct: expressed in transfected cells
Sequence (P36544 23-502): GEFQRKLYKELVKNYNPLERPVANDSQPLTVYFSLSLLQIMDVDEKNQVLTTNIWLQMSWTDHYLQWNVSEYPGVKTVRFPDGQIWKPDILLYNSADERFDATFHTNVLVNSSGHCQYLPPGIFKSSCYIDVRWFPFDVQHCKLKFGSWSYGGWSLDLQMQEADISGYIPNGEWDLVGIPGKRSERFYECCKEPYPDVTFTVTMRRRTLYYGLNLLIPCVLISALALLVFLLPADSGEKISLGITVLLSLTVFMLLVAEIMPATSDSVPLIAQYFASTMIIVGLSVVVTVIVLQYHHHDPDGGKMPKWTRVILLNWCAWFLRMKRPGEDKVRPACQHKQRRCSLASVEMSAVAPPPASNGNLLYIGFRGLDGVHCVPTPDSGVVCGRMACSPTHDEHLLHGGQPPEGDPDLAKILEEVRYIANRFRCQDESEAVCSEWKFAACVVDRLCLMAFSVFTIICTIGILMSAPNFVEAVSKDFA
test.name: Ca2+ flux imaging (FDSS) (Protocol B)
Format: cell-based
measurement.context: efficacy of 100 μM choline defined as 100% in the absence of a PAM; read-out: a7-PAM-G_[33]_Eff_Curve_FI % Efficacy
readout.type: Emax (%)

[
  {
    "smiles.entry": "Cc1cc(-c2sc(N3C[C@@H](C)O[C@@H](C)C3)nc2CNC(=O)c2ccc3c(c2)OC(F)(F)O3)cc(C)n1",
    "value.measured": 566
  },
  {
    "smiles.entry": "CCCC(=O)NCc1nc(N2CCOCC2)sc1-c1cc(C)nc(C)c1",
    "value.measured": 959
  },
  {
    "smiles.entry": "Cc1cc(-c2sc(N3C[C@@H](C)O[C@@H](C)C3)nc2CNC(=O)c2cc(C)n(C(C)(C)C)n2)cc(C)n1",
    "value.measured": 699
  }
]

Values compiled from patent US8637510B2.
